Assay: Body and organ weights in the murine VL model
Type: in vivo, BALB/c mice
Conditions: 3 mg/kg, p.o. qd
Recorded endpoint: Mean Body Weight Pre-treatment (g)
Express your answer in g, writing the number without its unit.

Req: Which Mean Body Weight Pre-treatment value belongs to `CCCCCCCCCCCCCCCCOP(=O)([O-])OCC[N+](C)(C)C` ?
Resp: 19.3

----------
Experiment: Body and organ weights in the murine VL model
Format: in vivo, BALB/c mice
Settings: 3 mg/kg, p.o. qd
Recorded endpoint: Mean Body Weight Post-treatment
Answer format: value, then unit.

Req: Can you share its Mean Body Weight Post-treatment? I mean this compound: `CCCCCCCCCCCCCCCCOP(=O)([O-])OCC[N+](C)(C)C`
Resp: 19.2 g
